- Subject of test: Mtb Lpd (Mycobacterium tuberculosis (strain ATCC 25618 / H37Rv), UniProt P9WHH9)
- Type: biochemical
- Experimental parameters: read-out: LPD IC50
Readout name: log10(IC50) (log10 of the value in nM)
A value of 2 here means IC50 of 100 in nM, since values are log10.

Use these answered entries as a reference point.
Answer with the recorded log10(IC50) of Cc1cc(S(=O)(=O)N(C)CC(=O)Nc2ccn(C)c(=O)c2)c2[nH][nH]c(=O)c2c1 [Example 133] only. 1.85

Kindly indicate its recorded log10(IC50). Item: Cn1ccc(NC(=O)[C@@H]2CCN2S(=O)(=O)c2cc(Cl)cc3cn[nH]c23)cc1=O [Example 149] 1.79

Please supply the value of reported log10(IC50) for the item Cc1cc(S(=O)(=O)N(C)CC(=O)Nc2cc(C)n(C)c(=O)c2)c2[nH]ncc2c1 [Example 17] 1.72

Determine its reported log10(IC50): Cc1cc(S(=O)(=O)N(C)CC(=O)NC2C(=O)N(C)c3ccccc32)c2n[nH]cc2c1 (centres unmarked) [Example 79] 2.89

Identify measured log10(IC50) corresponding to Cc1cc(S(=O)(=O)N(C)CC(=O)Nc2nc3c(s2)CCOC3)c2n[nH]cc2c1 [Example 116] 1.89

Please report the measured log10(IC50) for CCN(CC(=O)Nc1ccc2c(c1)OCCN2C1COC1)S(=O)(=O)c1cc(C)cc2c[nH]nc12 [Example 155] 1.39

Value sought for every listed compound: log10(IC50).
1. Cc1cc(S(=O)(=O)N(C)CC(=O)Nc2ccc3c(c2)OCCN3C2COC2)c2n[nH]c(F)c2c1 [Example 140]
2. O=C(Nc1ccc2c(c1)OCCN2C1COC1)[C@@H]1CCN1S(=O)(=O)c1cc(C(F)F)cc2c(F)n[nH]c12 [Example 184]

1.44
2.17

---

- Subject of test: Mtb Lpd (Mycobacterium tuberculosis (strain ATCC 25618 / H37Rv), UniProt P9WHH9)
- Assay type: biochemical
- Experimental parameters: read-out: LPD IC50
pIC50: −log10 of the molar value.
Binary classification by pIC50, with 7 as an inclusive lower bound for label 1; all other cases are label 0.

Worked examples follow.
Please check the record Cc1cc(S(=O)(=O)N(C)CC(=O)Nc2ccn(C)c(=O)c2)c2nn[nH]c2c1 [Example 132] and state if its pIC50 is at or above 7. label 0

Does the molecule Cc1cc(S(=O)(=O)N(C)CC(=O)Nc2ccc3ccncc3c2)c2n[nH]cc2c1 [Example 63] have recorded pIC50 that is 7 or more? label 1

Form field: pIC50 at least 7? Entry: O=C(Nc1ccc2c(c1)OCCN2C1CCOCC1)[C@@H]1CCN1S(=O)(=O)c1cc(C(F)F)cc2c(F)n[nH]c12 [Example 185] label 0

Threshold query (pIC50 >= 7) on Cc1cc(S(=O)(=O)N2CC[C@H]2C(=O)NC2CCCN(C)C2)c2[nH]ncc2c1 (stereo partly shown) [Example 135-S] label 0

Reported pIC50 reaches at least 7 for Cc1cc(S(=O)(=O)N2CCC(C(=O)Nc3ccn(C)c(=O)c3)C2)c2[nH]ncc2c1 (stereo not shown) [Example 213] ? label 0

Further cases:
Record CN(CC(=O)Nc1ccn(C)c(=O)c1)S(=O)(=O)c1cc(Cl)cc2c(F)n[nH]c12 [Example 150] ; criterion: pIC50 no lower than 7. Met? label 1

Exam item: decide whether the reported pIC50 for Cc1cc(S(=O)(=O)N2CC[C@H]2C(=O)NC2CCCN(C)C2)c2[nH]ncc2c1 (stereo partly shown) [Example 135-R] is at least 7. label 0
